Every entry's value here was drawn from paper PMC7158045.

TARGET UNDER TEST: ZmDRIK1-R187-P492 (Zea mays, UniProt C0P4K9)
Construct: kinase domain, R187-P492
Sequence (C0P4K9 1-514): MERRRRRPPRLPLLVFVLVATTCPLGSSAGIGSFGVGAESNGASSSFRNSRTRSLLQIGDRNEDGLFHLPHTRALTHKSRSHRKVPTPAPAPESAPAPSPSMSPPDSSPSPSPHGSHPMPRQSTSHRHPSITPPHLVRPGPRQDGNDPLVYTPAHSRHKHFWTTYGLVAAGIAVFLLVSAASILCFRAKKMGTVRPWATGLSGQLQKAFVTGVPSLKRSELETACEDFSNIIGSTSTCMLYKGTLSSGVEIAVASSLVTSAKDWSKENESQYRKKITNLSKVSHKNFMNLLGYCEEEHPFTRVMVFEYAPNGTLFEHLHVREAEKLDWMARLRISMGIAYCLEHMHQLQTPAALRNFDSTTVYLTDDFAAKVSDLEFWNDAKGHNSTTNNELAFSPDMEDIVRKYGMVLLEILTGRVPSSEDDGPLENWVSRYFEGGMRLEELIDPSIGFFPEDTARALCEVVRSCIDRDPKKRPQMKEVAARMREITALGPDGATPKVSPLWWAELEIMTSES
PROCEDURE TEXT: biochemical
CONDITION SET: read-out: dTm B, DSF, Boltzmann fit, 0.1% DMSO
Structures can show the parent of a compound that is named as a salt.
Would you please tag the item class 1 when its ΔTm at 10 µM is -0.3 °C or above, and class 0 when it is below?

Solved entries (count: 10):
O=C1Nc2ccccc2/C1=C1/Nc2ccccc2C1=O    class 0
Cc1cc(Nc2nc(N[C@@H](C)c3ccc(F)cc3)c(C#N)cc2F)n[nH]1    class 0
Cc1ccc(F)c(NC(=O)Nc2ccc(-c3cccc4[nH]nc(N)c34)cc2)c1    class 0
NC(=O)c1ncn([C@@H]2O[C@H](CO)[C@@H](O)[C@H]2O)c1N    class 1
Cc1c(NC(=O)OC[C@@H]2COCCN2)cn2ncnc(Nc3ccc4c(cnn4Cc4cccc(F)c4)c3)c12    class 1
CNc1nc(Nc2cn(C(C)(C)C#N)nc2C)ncc1C(F)(F)F    class 0
Cc1csc(-c2nnc(Nc3ccc(Oc4ncccc4-c4ccnc(N)n4)cc3)c3ccccc23)c1    class 0
CCCCCCCCc1ccc(CCC(N)(CO)CO)cc1 [Fingolimod (FTY720) HCl]    class 0
Cn1cc(-c2[nH]c3cc(NC(=O)[C@H](N)C4CCCCC4)cc4c3c2C=NNC4=O)cn1    class 1
Cc1ccc(NC(=O)c2cccc(C(C)(C)C#N)c2)cc1Nc1ccc2ncn(C)c(=O)c2c1    class 1

Threshold query (ΔTm at 10 µM >= -0.3 °C) on CN(C)CCOc1ccc(-c2nc(-c3ccncc3)c(-c3ccc4c(c3)CC/C4=N\O)[nH]2)cc1
class 1

Determine whether measured ΔTm at 10 µM meets or exceeds -0.3 °C for Nc1ncnc2c1c(-c1cnc3[nH]ccc3c1)nn2C1CCCC1
class 0

hey, is ΔTm at 10 µM for this one >= -0.3 °C? CN(C)CCCn1cc(C2=C(c3c[nH]c4ccccc34)C(=O)NC2=O)c2ccccc21 [GF109203X]
class 0

Is it the case that CO[C@H]1C[C@@H]2CC[C@@H](C)[C@@](O)(O2)C(=O)C(=O)N2CCCC[C@H]2C(=O)O[C@H]([C@H](C)C[C@@H]2CC[C@@H](O)[C@H](OC)C2)CC(=O)[C@H](C)/C=C(\C)[C@@H](O)[C@@H](OC)C(=O)[C@H](C)C[C@H](C)/C=C/C=C/C=C/1C [Rapamycin (Sirolimus)] has ΔTm at 10 µM reaching or exceeding -0.3 °C?
class 0
